IC50 by FRET Assay values for the binders below.
SYSTEM_TESTED: catalytic domain of MMP-14 (cdMMP-14) (human, UniProt P50281 114-287, limits assumed, biotinylated (Sulfo-NHS-LC-Biotin) where immobilised via streptavidin)
PROCEDURE_SUMMARY: cell-based or functional assay
Respond with the bare value in µM.

BINDER: Fab 33D2 (Fab, V domains shown, not shown: His tag at the C-terminus of the heavy chain) VH: EVQLVESGGGLVQPGGSLRLSCAASGFNLYYSSIHWVRQAPGKGLEWVAYISSYSGYTSYADSVKGRFTISADTSKNTAYLQMNSLRAEDTAVYYCARSKYGPASRQLASRTSWSGPRGKYGMDYWGQGTLVTVSS VL: DIQMTQSPSSLSASVGDRVTITCRASQSVSSAVAWYQQKPGKAPKLLIYSASSLYSGVPSRFSGSRSGTDFTLTISSLQPEDFATYYCQQAYGSYLITFGQGTKVEIKR
IC50 by FRET Assay [µM]: 0.42
//
BINDER: Fab 3E9 (Fab, V domains shown, not shown: His tag at the C-terminus of the heavy chain) VH: EVQLVESGGGLVQPGGSLRLSCAASGFNLYYSSMHWVRQAPGKGLEWVASIYPSYGSTYYADSVKGRFTISADTSKNTAYLQMNSLRAEDTAVYYCARNGRYPGFLKRAHKRLLNFKAYVMDYWGQGTLVTVSS VL: DIQMTQSPSSLSASVGDRVTITCRASQSVSSAVAWYQQKPGKAPKLLIYSASSLYSGVPSRFSGSRSGTDFTLTISSLQPEDFATYYCQQGSWYLITFGQGTKVEIKR
IC50 by FRET Assay [µM]: 6

Next binder, please.
Which measured IC50 by FRET Assay value corresponds to Fab 32D1 (Fab, V domains shown, not shown: His tag at the C-terminus of the heavy chain) VH: EVQLVESGGGLVQPGGSLRLSCAASGFNLYYSYMHWVRQAPGKGLEWVASISPYSGYTYYADSVKGRFTISADTSKNTAYLQMNSLRAEDTAVYYCARMSLHRNFNQQGRSRLLGRMPRTYGMDYWGQGTLVTVSS VL: DIQMTQSPSSLSASVGDRVTITCRASQSVSSAVAWYQQKPGKAPKLLIYSASSLYSGVPSRFSGSRSGTDFTLTISSLQPEDFATYYCQQYYSLITFGQGTKVEIKR ? 4.2
